- EXPERIMENTAL_SYSTEM: human PDE5 (Homo sapiens, UniProt O76074)
- ASSAY_DETAILS: Inhibition of PDE5 activity (modified SPA test, human platelet lysate)
- CONDITION_INFO: PDE5-containing human platelet lysate, 0.5 μM cGMP substrate, 37° C.
pIC50: −log10 of the molar value.
MEASURE: pIC50

COMPOUND	pIC50
CC1(C)Cc2nc(Cc3cc(F)cc(F)c3)c3[nH]c4ccccc4c3c2[C@@H](O)C1	8.50

A: CC1(C)CC(=O)c2c(nc(Cc3ccc(O)cc3)c3[nH]c4ccccc4c23)C1
B: CC1(C)Cc2nc(Cc3cccc(N)c3)c3[nH]c4ccccc4c3c2C(O)C1 (centres unmarked)
Endpoint returns the identifier whose pIC50 is numerically larger, either A or B . Respond with the label that goes with your answer.
A
(A: 8.72, B: 8.39)

I: COc1ccc(Cc2nc3c(c4c2[nH]c2ccccc24)[C@@H](O)CCC3)cc1F
II: CC1(C)Cc2nc(Cc3ccc(OC(F)(F)F)cc3)c3[nH]c4ccccc4c3c2C(O)C1 (centres unmarked)
III: CC1(C)Cc2nc(Cc3cccc(Br)c3)c3[nH]c4ccccc4c3c2C(O)C1 (centres unmarked)
Let's sort these by pIC50, smallest first. Go ahead? Your answer should be the labels, listed in the requested order.
II, III, I

A: CC1(C)CC(=O)c2c(nc(Cc3ccc(OC(F)(F)F)cc3)c3[nH]c4ccccc4c23)C1
B: O=C1CCCc2nc(Cc3ccccc3)c3[nH]c4ccccc4c3c21
Which entry shows the lesser value of pIC50 here, A or B ? Respond with the label that goes with your answer.
A
(A: 6.87, B: 7.71)
